Numbers sourced from PubChem BioAssay (EPA / NIEHS).

- Read-out: Cytochrome P450 3A4 (Homo sapiens)
- assayDetails: CLD_CYP3A4_24hr: CellzDirect (CLD) Gene Expression Assay for xenobiotic metabolism (CYP3A4) at 24 hours (AID 2283689)
Inconclusive results are not listed. Active and inactive are the calls of the source. Rule for the calls: active = hit-call score of the fitted dose curve at least 0.9, where 1 is the maximum; inconclusive = response in the unintended direction; inactive = score below 0.9.
Entry note: the call must match one of label 1 for active, label 0 for inactive

// return assay outcome for CCCC1COC(Cn2cncn2)(c2ccc(Cl)cc2Cl)O1 (stereo unspecified)
label 1

// outcome(item) with item = `Cc1cc(Cl)ccc1OCC(=O)O`
label 0

Would you mind telling me which call this test gave C=CC1(C)OC(=O)N(c2cc(Cl)cc(Cl)c2)C1=O (stereo unspecified) ?
label 0

Field: outcome | Entry: `CCc1nn(C)c(C(=O)NCc2ccc(C(C)(C)C)cc2)c1Cl`
label 1

Could you please tell me the result logged for `CON(C)C(=O)Nc1ccc(Cl)c(Cl)c1` in this assay?
label 0

Could you check what this test reported for CCON=C(CC)C1=C(O)CC(c2c(C)cc(C)cc2C)CC1=O (stereo unspecified) ?
label 0
